Exercise: for every item that follows, state its recorded viability.
Experiment: growth suppression of PTEN-deleted HCT116, pilot screen, cell-based, HCT116 clonal line, CellTiter-Glo (AID 824);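 note: 0% = 20 µM Hyamine control and 100% = vehicle cell control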
Conditions: 60 h, at 10 µM, hits give low values
Records with an inconclusive call do not appear.
Give bare numbers, in %.

Please look at the items below and tell me viability for each one, in order.
1. N#CC1=C2SCN(Cc3ccco3)CN2C(=O)CC1c1c(F)cccc1Cl (stereo unspecified)
2. O=C(NCCCN1CCc2ccccc2C1)C1CCN(c2nnc(-n3cccc3)s2)CC1
3. CCCCCCN1C(=O)C(O)=C(C(C)=O)C1c1ccc(Cl)cc1 (stereo unspecified)
4. COc1ccc(C)cc1NC(=O)Cn1cnc2sc(C)c(S(=O)(=O)N3CCOCC3)c2c1=O

Result string:
1: 88.1; 2: 79.4; 3: 100; 4: 99.3

Please look at the items below and tell me viability for each one, in order.
1. COc1ccc(CC(=O)N2CC3(C)CC2CC(C)(C)C3)cc1OC (stereo unspecified)
2. O=C1CC(c2cccs2)CC(O)=C1C=NCCN1CCNCC1 (stereo unspecified)
3. Nc1cc(-c2cccc(F)c2)nn1S(=O)(=O)c1cccc2nsnc12
4. CCOc1cc(/C=N/n2cnnc2)ccc1OCC(=O)Nc1ccccc1OC
5. CC(C)Cc1cc(C(=O)Nc2cc(Cl)ccc2Cl)no1
6. Cc1c(C(=O)NCc2ccc3c(c2)OCO3)oc2ccc(S(=O)(=O)N3CCCC3)cc12
7. CCn1c(CCCNC(=O)c2cccs2)nc2ccccc21

Result string:
88.2
97.2
65.7
95.7
98
66.1
96.1

Please look at the items below and tell me viability for each one, in order.
1. COc1ccc(C2C(C(=O)NCCN3CCOCC3)c3ccccc3C(=O)N2C)cc1OC (stereo unspecified)
2. COCc1nc(-c2ccc(-c3ccc(OC)cc3)nc2OC)no1

Result string:
[100, 72.2]

====

Test: growth suppression of beta-catenin knockout HCT116, pilot screen, human colon tumor cells (AID 823);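 note: 0% = wells killed by 20 µM Hyamine and 100% = untreated DMSO cell wells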
Conditions: CellTiter-Glo, 60 h, at 10 µM, hits give low values
Records with an inconclusive call do not appear.
MEASUREMENT NAME: viability (%)
Numbers only, in %.

Please look at the items below and tell me viability for each one, in order.
1. CCC(C)N1CC23C=CC(O2)C(C(=O)OC)C3C1=O (stereo not drawn)
2. Cn1c(=O)[nH]c(=O)c2c1nc(Sc1ncccn1)n2CCCc1ccccc1
3. O=C(CCCOc1ccccc1)NCC1CCCO1 (stereo not drawn)
4. O=C(Cn1c(=O)oc2ccccc21)N1CCN(c2ccc(N3CCOCC3)nn2)CC1
5. Cc1ccc(Nc2nc(N3CCOCC3)nc(N3CCOCC3)n2)cc1
6. CCOc1ccc(-n2c(SCC(=O)Nc3nccs3)nc3c(c2=O)SCC3)cc1
7. CCOC(=O)COc1cccc2c(=O)n(CC(=O)N3CCN(C(=O)OCC)CC3)ccc12
8. CCN1CCN(Cc2nc3c(c(=O)n(C)c(=O)n3C)n2C(C)C(C)=O)CC1 (stereo not drawn)

Result string:
109
97
96.5
101
64.2
104
104
89.7

====

Experiment: inhibitors of the yeast RAM network, pilot screen, dse1pr::URA3 reporter, 5-FOA selection (AID 869);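 note: 0% = DMSO wells with no growth and 100% = 10 µM 1-NA-PP1 with full growth; RAM network block rescues cells from 5-FOA so hits raise OD615 growth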
Conditions: S. cerevisiae dse1pr::URA3 5-FOA growth, OD615, 2 d; at 10 µM; hits give high values; strain carries analog-sensitive mutant Cbk1 kinase
MEASUREMENT NAME: inhibition (%)
Numbers only, in %.

| MOLECULE | MEASURE UNIT | inhibition |
| --- | --- | --- |
| CCOc1ccc2[nH]c(C)c(CN3CCOCC3)c(=O)c2c1 | % | 1.96 |
| CC(NC(=O)c1ccccc1O)c1ccccc1 (configuration not stated) | % | 0.1 |
| O=C(O)CCC(=O)N1CCc2cc(S(=O)(=O)N3CCC(Cc4ccccc4)CC3)ccc21 | % | 1.47 |

Please look at the items below and tell me inhibition for each one, in order.
1. Cc1cc(-c2c(C)n([O-])c(C)c(C)[n+]2=O)ccc1F
2. CCN1CCN(CC(=O)Nc2ccc3c(c2)OCCO3)C(=O)C1=O

Result string:
1. 1.03
2. 0.675

Please look at the items below and tell me inhibition for each one, in order.
1. CCCCCN=C(C)c1c(O)c2ccccc2oc1=O
2. COc1cc(OC)cc(C(=O)NCC2CCCO2)c1 (configuration not stated)
3. CCCCCn1c(NC2CCCCC2)nc2c1c(=O)[nH]c(=O)n2C
4. CCC(C(=O)OC)n1cnc2c(nnn2-c2cccc(Cl)c2)c1=O (configuration not stated)
5. COc1ccc(OCC(=O)Nc2cc(OC)cc(OC)c2)cc1
6. CCc1ccc(C2CC(c3ccccc3)Nc3nc(N)nn32)cc1 (configuration not stated)

Result string:
-0.66
0.465
1.53
0.145
-0.89
-0.27

Query string: Dear colleague, I am looking for the recorded inhibition of the following molecule: N#CCCN1CCN(S(=O)(=O)c2ccc(S(=O)(=O)NCC3CCCO3)cc2)CC1 (configuration not stated)
Result string: 0.51

====

Experiment: growth suppression of PTEN-deleted HCT116, pilot screen, cell-based, HCT116 clonal line, CellTiter-Glo (AID 824);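 note: 0% = 20 µM Hyamine control and 100% = vehicle cell control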
Details: 60 h, at 10 µM, hits give low values
Records with an inconclusive call do not appear.
MEASUREMENT NAME: viability (%)
Answers are plain numbers, in %.

Recorded results for 4 compounds are shown here.
| COMPOUND | viability, % |
| --- | --- |
| COC(=O)c1ccccc1NC(=O)c1cc(C2CC2)on1 | 90.8 |
| CCOc1ccc2nc(N3CCC(C(=O)N4CCN(c5ccccn5)CC4)CC3)sc2c1 | 55.7 |
| c1cc(-c2nnc3n2CCC3)[nH]n1 | 104 |
| CCn1c(=O)c2c3c(sc2n2c(SCc4ccc(F)cc4)nnc12)CCCC3 | 25.7 |

Please look at the items below and tell me viability for each one, in order.
1. COc1ccc(S(=O)(=O)n2nc(-c3cc(OC)c(OC)c(OC)c3)cc2N)cc1OC
2. CCCCCn1c(NCc2ccco2)nc2ccccc21
3. COc1cc2c(cc1OC)C(c1cccs1)NCC2 (centres undefined)
4. CSC1=NCCN1C(=O)c1cccs1
5. Cc1c(C(=O)NCc2ccccc2)oc2ccc(S(=O)(=O)N3CCC4(CC3)OCCO4)cc12
6. O=C(Nc1cccc(F)c1)c1ccc(S(=O)(=O)N2CCOCC2)cc1

Result string:
[74.8, 72.9, 92.6, 99.3, 66.5, 99.6]

Please look at the items below and tell me viability for each one, in order.
1. CCOc1ccc(OCC)c(S(=O)(=O)NCc2ccc3c(c2)OCO3)c1
2. COc1ccc(S(=O)(=O)N(CC(=O)Nc2ccc3c(c2)OCO3)c2ccccc2OC)cc1
3. Nc1nc2n(n1)C(c1ccccc1Cl)CC(c1ccc(F)cc1)N2 (centres undefined)
4. CCCc1cc(=O)oc2cc3occ(C)c3cc12
5. Cn1c(=O)cc(N2CCc3ccccc32)[nH]c1=O
6. O=C(O)CC12CSc3[nH]c(=O)sc3C1c1ccccc1OC2=O (centres undefined)
7. COc1ccc(CCNC(=O)c2ccco2)cc1

Result string:
1. 96.5
2. 79.8
3. 88.8
4. 97.6
5. 98.1
6. 95
7. 91.8

Please look at the items below and tell me viability for each one, in order.
1. CCCCC(=O)Nc1nc2ccc3nc(C)sc3c2s1
2. CC1CCCCN1CCNC(=O)c1cnn2ccccc12 (centres undefined)

Result string:
1. 87.2
2. 91.6

Please look at the items below and tell me viability for each one, in order.
1. CN1C(=O)CS(=O)c2ccc(C(=O)NC3CC3)cc21 (centres undefined)
2. c1ccc(-c2noc(-c3cccnc3)n2)cc1
3. CCOC(=O)c1sc(NC(=O)c2ccco2)nc1-c1ccccc1
4. O=C(CSc1nc2c(c(=O)n1-c1ccc(Cl)cc1)SCC2)N1CCCC1
5. O=S(=O)(NCCc1csc(-c2cccnc2)n1)c1ccc2c(c1)OCCO2

Result string:
1. 95.4
2. 95.2
3. 95.5
4. 101
5. 95.5

====

Exercise: for every item that follows, state its recorded viability.
Assay: growth suppression of beta-catenin knockout HCT116, pilot screen, human colon tumor cells (AID 823);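 note: 0% = wells killed by 20 µM Hyamine and 100% = untreated DMSO cell wells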
Conditions: CellTiter-Glo, 60 h, at 10 µM, hits give low values
Inconclusive results are not listed.
One number for each entry, in %.

Recorded results for 3 compounds are shown here.
| COMPOUND | MEASUREMENT NAME | REPORTED RESULT |
| --- | --- | --- |
| CCSc1nnc(NC(=O)CCc2ccccc2)s1 | viability | 88.7 |
| CN1C(=O)C(O)(CC(=O)c2cccnc2)c2ccccc21 (stereo not drawn) | viability | 83 |
| COc1ccc(N2CCN(CCCNC(=O)CCCn3c(=O)[nH]c4ccsc4c3=O)CC2)cc1 | viability | 94 |

Please look at the items below and tell me viability for each one, in order.
1. CC(=O)C1=C(C)NC(SCC(N)=O)=C(C#N)C1c1cccnc1 (stereo not drawn)
2. OC(COc1ccc(Cl)c2ccccc12)CN1CCN(c2ccccn2)CC1 (stereo not drawn)
3. Nc1c(C(=O)NCc2cccnc2)sc(=S)n1-c1ccccc1
4. O=S(=O)(NCCSc1nnc(-c2ccco2)n1-c1ccccc1)c1ccccc1

Result string:
1: 104; 2: 94.9; 3: 90.3; 4: 83.9
